- measuredTarget: Polyunsaturated fatty acid 5-lipoxygenase (Homo sapiens)
- Sequence (P09917 whole entry): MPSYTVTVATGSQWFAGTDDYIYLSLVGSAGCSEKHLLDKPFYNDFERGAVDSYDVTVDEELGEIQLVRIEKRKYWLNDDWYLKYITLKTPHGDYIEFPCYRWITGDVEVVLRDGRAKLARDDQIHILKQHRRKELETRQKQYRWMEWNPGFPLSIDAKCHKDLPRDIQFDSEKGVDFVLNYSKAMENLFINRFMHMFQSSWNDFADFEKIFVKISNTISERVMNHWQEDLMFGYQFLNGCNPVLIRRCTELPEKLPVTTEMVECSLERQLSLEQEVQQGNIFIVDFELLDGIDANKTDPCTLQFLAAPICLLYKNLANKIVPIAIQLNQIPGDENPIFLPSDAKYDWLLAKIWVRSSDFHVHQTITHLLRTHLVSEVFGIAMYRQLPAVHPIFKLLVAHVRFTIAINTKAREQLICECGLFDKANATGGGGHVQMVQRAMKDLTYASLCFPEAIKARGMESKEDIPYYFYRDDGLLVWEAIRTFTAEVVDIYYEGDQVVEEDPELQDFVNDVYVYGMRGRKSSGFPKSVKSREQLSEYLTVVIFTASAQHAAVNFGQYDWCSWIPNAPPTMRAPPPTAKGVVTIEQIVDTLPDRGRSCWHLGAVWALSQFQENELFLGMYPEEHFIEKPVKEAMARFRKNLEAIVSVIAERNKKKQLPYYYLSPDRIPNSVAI
- assay: Inhibition of recombinant human 5-LO expressed in Escherichia coli BL21 using arachidonic acid as substrate assessed as formation of all-trans isomer of LTB4, 5-H(P)ETE preincubated for 5 to 10 mins followed by substrate addition measured after 10 mins by HPLC analysis
Overview of reported IC50 across a group of compounds:

Some solved cases for reference:
compound	measuredTarget	propertyMeasured	testResult
CC(C)C(=O)c1c(O)cc(O)c(C(C2=C(O)C(C)(C)C(=O)C(C)(C)C2=O)C(C)C)c1O (centres undefined)	Polyunsaturated fatty acid 5-lipoxygenase (Homo sapiens)	IC50	> 10 µM
CCCCCC(=O)c1c(O)c(C(C2=C(O)CC(C)(C)CC2=O)C(C)C)c(O)c(C(C2=C(O)CC(C)(C)CC2=O)C(C)C)c1O (centres undefined)	Polyunsaturated fatty acid 5-lipoxygenase (Homo sapiens)	IC50	> 10 µM
CC(C)C(=O)c1c2c(c(O)c3c1OC1=C(C(=O)C(C)(C)C(=O)C1(C)C)C3C(C)C)C(C(C)C)C1=C(O2)C(C)(C)C(=O)C(C)(C)C1=O (centres undefined)	Polyunsaturated fatty acid 5-lipoxygenase (Homo sapiens)	IC50	> 10 µM

Okay, now this compound:
(Q) Assign IC50 to the following record: CC(C)C(C1=C(O)C(C)(C)C(=O)C(C)(C)C1=O)c1c(O)c(C(=O)c2ccccc2)c(O)c(C(C2=C(O)C(C)(C)C(=O)C(C)(C)C2=O)C(C)C)c1O (centres undefined)
(A) > 10 µM
